assay: ATG_DR4_LXR_CIS: Attagene CIS-FACTORIAL HepG2 Assay for human Liver X Receptor (LXR), DR4 submotif (AID 2282929); conditions: HepG2 Attagene DR4 cis-reporter, mRNA transcription; actives raise or lower the signal
Active and inactive are the calls of the source. Rule for the calls: active = hit-call score of the fitted dose curve at least 0.9, where 1 is the maximum; inactive = score below 0.9.
Assign a class; possible classes are active, inactive

I'd appreciate the recorded outcome for O=C(O)CC(C(=O)O)S(=O)(=O)O (stereo not drawn) from this test. inactive

What do we get for CCCCCCCCC(CO)CCCCCC (stereo not drawn) ? active

Thanks! And CC1=CC(C)C(C=O)CC1 (stereo not drawn) ? inactive

Same thing, different compound: `Cc1cc(C)n(CO)n1` inactive

// next record `C=C(C)[C@@H]1CC=C(C)CC1` inactive

Also `O=C(O[C@@H]1Cc2c(O)cc(O)cc2O[C@@H]1c1cc(O)c(O)c(O)c1)c1cc(O)c(O)c(O)c1` ? inactive

Would you kindly repeat that for `NNS(=O)(=O)c1ccc(Oc2ccc(S(=O)(=O)NN)cc2)cc1` ? inactive

And then `NC(=O)Nc1ccccc1` , what is it? inactive

Now try `CC(C)CO` . inactive

Moving on to `Cc1ccc(S(=O)(=O)N=C=O)cc1` inactive

Same lookup for `CN(C)c1ccc2nc3ccc(=[N+](C)C)cc-3sc2c1` , please. inactive

And the next one, `CC/C=C\C/C=C\C/C=C\CCCCCCCC(=O)OC` ? active

Record: `CCCCOC(=O)CCC(C)=O` inactive

Same again, this time with CC1CCC(=O)C1=O (stereo not drawn) inactive

Then what about the compound `CC(=O)c1ccc(S(=O)(=O)NC(=O)NC2CCCCC2)cc1` ? inactive

Similarly, `N#Cc1ccc(C(c2ccc(C#N)cc2)n2cncn2)cc1` ? inactive

Field entry: CC(=O)OC1CCCCC1C(C)(C)C (stereo not drawn) inactive

What would you report for `Oc1ccc(-c2ccccc2)c(Cl)c1` ? inactive

Another compound to look at: `Cc1cccc(C(C)(C)C)c1O` inactive

Same question for CC(Cl)COP(=O)(OCC(C)Cl)OCC(C)Cl (stereo not drawn) please. inactive

Quick one: `O=C(Oc1ccccc1)c1ccccc1O` inactive

Item: `C=CC(=O)OCCCCCCCC(C)C` active

# iterate: `CCOC(=O)[C@H](O)[C@@H](O)C(=O)OCC` inactive

Next compound up: `CC(CCC(=O)O)(c1ccc(O)cc1)c1ccc(O)cc1` inactive

What do you have for `CC(C)C(=O)OCCOc1ccccc1` ? inactive

Would you mind doing C=C(C)C1CC=C(C)CC1 (stereo not drawn) as well? inactive

`C=Cc1ccc(OC(C)=O)cc1` , same question. inactive

Record: `O=C(C=Cc1ccccc1)OCCc1ccccc1` active

Then `CCCCCCCCCC[N+](C)(CCCCCCCCCC)CCC[Si](OC)(OC)OC` ? inactive

Entry to check: CC1=CCC2CC1C2(C)C (stereo not drawn) inactive

Same read-out for `CC(=O)OC1CCCCC1` ? inactive

// same read-out, input: `COC(=O)C=Cc1ccccc1` inactive

Let us now turn to CC1C(C)(C)C2=C(C(=O)CCC2)C1(C)C (stereo not drawn) inactive

Queued: CCCC(C)C(=O)OCC (stereo not drawn) inactive

How about this compound: `CC(CC(C)C)=NO` inactive

Item: CCCCOC(=O)C(C)CC (stereo not drawn) inactive

Next entry: `C=C(C)C(=O)OCCCCCCCCCCCC` inactive

Again, but for `CC(c1cc(C(C)(C)C)cc(C(C)(C)C)c1O)c1cc(C(C)(C)C)cc(C(C)(C)C)c1O` inactive

Same read-out for C=CC(C)(CCC=C(C)C)OC(=O)C=Cc1ccccc1 (stereo not drawn) ? active

Can you handle `COc1cc(C)ccc1O` next? inactive

Input CCC(C)c1ccccc1 (stereo not drawn) inactive

Check `O=C(O)/C=C/c1ccccc1` too. inactive

And `CC1(C)CCC[C@]2(C)[C@H]3CC(=O)O[C@]3(C)CC[C@@H]12` ? inactive

What about this compound? `CC(C)c1cc(C(C)C)cc(C(C)C)c1` active

Item: `CCCCCCCCCCCCCCCCCCOS(=O)(=O)O` inactive

And for `CCCCCCCO` ? inactive

Can you check `COC(OC)(C(=O)c1ccccc1)c1ccccc1` next? active

Then this compound: `CCc1occc(=O)c1O` inactive

====

assay: ATG_PXRE_CIS: Attagene CIS-FACTORIAL HepG2 Assay for human Pregnane X Receptor Element (PXRE) (AID 2282957); details: HepG2 Attagene CIS-FACTORIAL PXRE reporter, mRNA; actives raise or lower the signal
The source made the active and inactive calls. Rule for the calls: active = hit-call score of the fitted dose curve at least 0.9, where 1 is the maximum; inactive = score below 0.9.
Field 'call' accepts active, inactive

Hello, I am checking results. What call was entered for `CC(C)c1ccc(O)c(C(C)C)c1` ? active

# iterate: `CC(C)(O)Cc1ccccc1` inactive

Record: `O=C(C=Cc1ccccc1)OCCc1ccccc1` active

`CCCC=C(C=O)CC` ? active

Queued: `Clc1cc(Cl)c(Cl)c(Cl)c1Cl` active

And the next one, `CCOC(=O)/C=C\C(=O)OCC` ? inactive

What do you get for CC1C(C)(C)C2=C(C(=O)CCC2)C1(C)C (stereo unspecified) ? active

Entry CCC(C)C(=O)OC (stereo unspecified) please inactive

Queued: `c1ccc(Nc2cccc3ccccc23)cc1` active

Here is the next compound: `CN(C)c1ccc2nc3ccc(=[N+](C)C)cc-3sc2c1` active

`C/C=C/C=C/CCCCCCCO` , same question. active

Also check `CC(C)C(=O)OCCOc1ccccc1` active

What do you get for `C1CNCCN1` ? inactive

Same question, `C1CCSC1` this time inactive

Then this compound: `Oc1c(Cl)cc(Cl)c(Cl)c1Cl` active

What do you get for `COC(=O)c1ccccc1C` ? active

Would you mind doing `COc1ccc(-c2coc3cc(O)cc(O)c3c2=O)cc1` as well? active

Repeat for the following compound: `CCOc1ccc(NC(N)=O)cc1` inactive

Queued: `Nc1ccc(C(=O)OCCCOC(=O)c2ccc(N)cc2)cc1` active

Do the same for `CN1CCN(C)CC1` please inactive

Another compound: `COc1cc(C)ccc1O` inactive

Would you mind doing `O=C(OCCc1ccccc1)c1ccccc1` as well? inactive

// next record `C=CCCCCCCCCC=O` active

Another: `CC(C)CCCCCOC(=O)CS` active

# iterate: `C=C[C@@]1(C)CC(=O)[C@]2(O)[C@@]3(C)[C@@H](O)CCC(C)(C)[C@@H]3[C@H](O)[C@H](OC(C)=O)[C@@]2(C)O1` active

Can you check `C=C(C)OC(C)=O` next? inactive

====

assay: ATG_AP_2_CIS: Attagene CIS-FACTORIAL HepG2 Assay for human Activator Protein 2 (AP-2) (AID 2282932); conditions: HepG2 AP-2 cis-reporter, Attagene transcription factor profiling; actives raise or lower the signal
Activity calls are given as the source filed them. The calls were made as follows: active = hit-call score of the fitted dose curve at least 0.9, where 1 is the maximum; inactive = score below 0.9.
API: response.call in active, inactive

Any idea what this test logged for CC(=O)/C=C/C1C(C)=CCCC1(C)C (stereo not given) ? inactive

Ok, now `CCCCCCCCCC[N+](C)(CCCCCCCCCC)CCC[Si](OC)(OC)OC` active

Another compound: `OCCCc1ccccc1` inactive

Also, `CCCCCCCCCCCCCC(=O)OC(C)C` please. inactive

Could you do the same for `CCCCCCCCCCCCCc1ccccc1` , please? inactive

====

target: Aryl hydrocarbon receptor (Homo sapiens) (UniProt P35869); experiment: ATG_Ahr_CIS: Attagene CIS-FACTORIAL HepG2 Assay for human Aryl Hydrocarbon Receptor (Ahr) (AID 2282930); conditions: HepG2 AhR cis-factorial reporter transcription; actives raise or lower the signal
Sequence (P35869 whole entry, looked up): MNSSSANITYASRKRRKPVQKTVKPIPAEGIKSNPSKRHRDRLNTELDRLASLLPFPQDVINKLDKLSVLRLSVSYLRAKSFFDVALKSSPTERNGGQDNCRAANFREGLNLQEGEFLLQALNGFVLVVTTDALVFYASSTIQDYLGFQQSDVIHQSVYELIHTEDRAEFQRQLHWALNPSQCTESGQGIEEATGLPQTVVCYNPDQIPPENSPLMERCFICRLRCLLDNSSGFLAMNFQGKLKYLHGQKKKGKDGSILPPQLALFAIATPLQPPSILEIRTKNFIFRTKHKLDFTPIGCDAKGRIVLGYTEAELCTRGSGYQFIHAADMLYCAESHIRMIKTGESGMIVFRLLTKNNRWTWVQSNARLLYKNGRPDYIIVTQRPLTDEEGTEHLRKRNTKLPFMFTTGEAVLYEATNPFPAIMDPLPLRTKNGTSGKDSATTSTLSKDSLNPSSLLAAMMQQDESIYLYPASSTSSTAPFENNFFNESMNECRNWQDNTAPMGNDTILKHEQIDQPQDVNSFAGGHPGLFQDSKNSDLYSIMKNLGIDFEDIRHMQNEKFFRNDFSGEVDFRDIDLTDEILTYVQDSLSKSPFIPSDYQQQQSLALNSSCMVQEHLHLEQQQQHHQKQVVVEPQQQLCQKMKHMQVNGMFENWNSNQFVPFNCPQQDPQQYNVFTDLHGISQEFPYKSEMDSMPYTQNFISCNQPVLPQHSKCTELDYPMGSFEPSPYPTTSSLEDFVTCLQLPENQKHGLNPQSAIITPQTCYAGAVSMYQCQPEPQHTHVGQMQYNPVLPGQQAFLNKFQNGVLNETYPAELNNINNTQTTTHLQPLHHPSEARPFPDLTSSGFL
The source made the active and inactive calls. How the source made its calls: active means hit-call score of the fitted dose curve at least 0.9, where 1 is the maximum; inactive means score below 0.9.
Hi! Could you answer with just one of these? active, inactive

Assay outcome for `C[Si]1(C)O[Si](C)(C)O[Si](C)(C)O[Si](C)(C)O[Si](C)(C)O1` : what was it? inactive

Then what about the compound `O=C(Nc1ccccc1)c1cc(Cl)ccc1O` ? active

Also need CC(=O)/C=C/C1C(C)=CCCC1(C)C (stereo not given) , thanks. inactive

Now consider C=CC(C)(O)CC/C=C(\C)CC (stereo not given) and answer again. inactive

Now consider `Clc1cccnc1` and answer again. inactive

Next up: `C=C(C)C(=O)OCCCCCCCCCCCC` inactive

Now the compound `c1ccc(-c2nc3ccccc3[nH]2)cc1` inactive

Proceed to CCC(C)(O)CCCC(C)C (stereo not given) inactive

Entry `CC(C)(C)NC(=O)[C@H]1CC[C@H]2[C@@H]3CC[C@H]4NC(=O)C=C[C@]4(C)[C@H]3CC[C@]12C` please inactive

Would you mind doing `O=C(O)c1ccc2c(c1)C(=O)OC2=O` as well? inactive

Follow-up item: `CC(CCC(=O)O)(c1ccc(O)cc1)c1ccc(O)cc1` inactive

For O=C(O)CC(C(=O)O)S(=O)(=O)O (stereo not given) then? inactive

How about `N#CC1(N)CCCCC1` ? inactive

Please answer likewise for `C=CC(=O)NCOCCCC` inactive

Now consider `CC(=O)c1ccc(S(=O)(=O)NC(=O)NC2CCCCC2)cc1` and answer again. active

Same read-out for `CCCCNS(=O)(=O)c1ccccc1` ? inactive

Entry `O=C1CCCN1C1CCCCC1` please inactive

Do the same for CCCCC(C=O)CC (stereo not given) please inactive

And for `O=C1c2ccccc2C(=O)c2cc(S(=O)(=O)O)ccc21` ? inactive

Try this compound too: `CC1(C)CCC[C@]2(C)[C@H]3CC(=O)O[C@]3(C)CC[C@@H]12` inactive

Same question for `C[Si](C)(C)N[Si](C)(C)C` please. inactive

Queued: `CC=C(C)C=CC=C(C)C` inactive

// query: `CC(c1cc(C(C)(C)C)cc(C(C)(C)C)c1O)c1cc(C(C)(C)C)cc(C(C)(C)C)c1O` inactive

// next record `Nc1ccc(O)c([N+](=O)[O-])c1` active

Again, but for `CCCCOC(=O)CCC(C)=O` inactive

Field entry: `CC1(C)CC(O)CC(C)(C)N1[O]` inactive

And what about the compound `CCCCCCCCCCCCCC(=O)OC(C)C` ? inactive

Try this compound next: `O=C1CCCCCCCCCCCN1` inactive

And the next one, `CCC[Si](OC)(OC)OC` ? inactive

Likewise for N#Cc1ccc(C2CCCc3cncn32)cc1 (stereo not given) ? inactive

And for `CCCSSCCC` ? inactive

// repeat for CC(C)(CO)C(O)C(=O)NCCCO (stereo not given) and report inactive

Try `CCCCCCCC(=O)OCC(COC(=O)CCCCCCC)OC(=O)CCCCCCC` next. inactive

What do we get for CCC(C)C(=O)OC (stereo not given) ? inactive

Next entry: `COC(=O)c1ccc(C(=O)OC)c(C(=O)OC)c1` inactive

Attribution: PubChem BioAssay (EPA / NIEHS)
